system: SW480; experiment: cell viability (CellTiter-Glo) relative to plate median (fraction of plate median); higher = more viable cells; settings: 10 µM; treatment time 24 h; reporter: 7TFP
assay endpoint: cell viability
Note: the reply should be a number with no unit written.

Enquiry: Param readout= cell viability; system= SW480; entry= Cc1nc(N)sc1-c1ccnc(Nc2ccc(N3CCOCC3)cc2)n1 ; returns value.
Return: 1.06

Enquiry: What about CC(C)c1cnn2c(NCc3ccccc3)cc(NCCCCCCN)nc12 ?
Return: 0.921

Enquiry: What about COc1cc2c(Oc3ccc4[nH]c(C)cc4c3F)ncnc2cc1OCCCN1CCCC1 ?
Return: 0.893

Enquiry: What about CCc1cccc(CC)c1NC(=O)N1Cc2[nH]nc(NC(=O)c3ccc(N4CCN(C)CC4)cc3)c2C1 ?
Return: 1.1

Enquiry: What about COC(=O)Nc1ccc(-c2nc(N3CCOCC3)c3cnn(C4CCN(C(=O)OC)CC4)c3n2)cc1 ?
Return: 1.11

---

Assign cell viability to each entry below.
system: DLD1; test: cell viability (CellTiter-Glo) relative to plate median (fraction of plate median); higher = more viable cells; details: 5 µM; treatment time 24 h; reporter: 7TFP
Note: the reply should be a number with no unit written.

Enquiry: Look up cell viability for this compound: N=C(N)NC(=N)Nc1ccccc1
Return: 0.96

Enquiry: What about CCC(=O)O[C@@H]1[C@@H](OC2C(C)/C=C/C(=O)OC(C)C(CO[C@@H]3O[C@H](C)[C@@H](OC(=O)CC)[C@@H](OC)[C@H]3OC)C3OC3/C=C/C(=O)C(C)(O)CC2C)O[C@@H](C)C[C@H]1OC (some centres undefined) ?
Return: 1.04

Enquiry: What about Cn1cnc([N+](=O)[O-])c1Sc1ncnc2[nH]cnc12 ?
Return: 0.95

Enquiry: What about COc1c(N2C[C@@H]3CCCN[C@@H]3C2)c(F)cc2c(=O)c(C(=O)O)cn(C3CC3)c12 ?
Return: 0.861

Enquiry: What about COC(=O)c1cc(O)c(=O)c2c(O)c(O)ccc2c1 ?
Return: 0.982

Enquiry: What about COc1c(-c2coc3cc4c(cc3c2=O)CC(OC(C)=O)C(C)(C)O4)ccc2c1C=CC(C)(C)O2 (centres undefined) ?
Return: 0.961

Enquiry: What about C=C1C[C@]23C[C@@]1(O)CC[C@H]2[C@@]12C=C[C@H](O)[C@@](C)(C(=O)O1)[C@H]2[C@@H]3C(=O)O ?
Return: 1.03

Enquiry: What about CN(C)CCCN1c2ccccc2Sc2ccc(Cl)cc21 ?
Return: 1.02

Enquiry: What about CN(Cc1cc(Br)cc(Br)c1N)C1CCCCC1 ?
Return: 0.975

---

system: SW480; assay: TCF/Wnt firefly luciferase reporter signal relative to plate median (fraction of plate median); higher = higher Wnt reporter signal; conditions: 5 µM; treatment time 24 h; reporter: 7TFP
assay endpoint: TCF/Wnt firefly luciferase reporter signal

Enquiry: Look up TCF/Wnt firefly luciferase reporter signal for this molecule: CCC(=O)O[C@@H]1[C@@H](OC2C(C)/C=C/C(=O)OC(C)C(CO[C@@H]3O[C@H](C)[C@@H](OC(=O)CC)[C@@H](OC)[C@H]3OC)C3OC3/C=C/C(=O)C(C)(O)CC2C)O[C@@H](C)C[C@H]1OC (stereo partly specified) [Chalcomycin B]
Return: 0.972

Enquiry: What about O=c1oc2c(O)c(O)cc3c(=O)oc4c(O)c(O)cc1c4c23 ?
Return: 1.04

Enquiry: What about CC(=O)c1oc2c(C)c3oc(=O)cc(C)c3cc2c1C [2-Acetyl-3,5,9-trimethylfuro[3,2-g]-chromen-7-one (VFT-04)] ?
Return: 1.12

Enquiry: What about CCN(CC)Cc1cc(Nc2ccnc3cc(Cl)ccc23)ccc1O ?
Return: 0.921

Enquiry: What about NC(CO)C(=O)NNCc1ccc(O)c(O)c1O (stereo unspecified) ?
Return: 1.08

Enquiry: What about Cc1c(C)c2c(c(C)c1O)CCC(C)(CCCC(C)CCCC(C)CCCC(C)C)O2 (stereo not drawn) [alpha-TOCHOPHEROL] ?
Return: 1.01

Enquiry: What about O=C(O)CCNC(=O)c1ccccc1 ?
Return: 1

Enquiry: What about CCCCCCc1ccc(O)cc1O.Nc1c2ccccc2nc2ccccc12 ?
Return: 0.848

Enquiry: What about CCC(=O)O[C@H]1[C@H](O[C@@H]2[C@@H](C)[C@H](O[C@H]3C[C@@](C)(OC)[C@@H](O)[C@H](C)O3)[C@@H](C)C(=O)O[C@H](CC)[C@@](C)(O)[C@H](O)[C@@H](C)C(=O)[C@H](C)C[C@@]2(C)O)O[C@H](C)C[C@@H]1N(C)C ?
Return: 1.11

Enquiry: What about Cc1cc(NS(=O)(=O)c2ccc(N)cc2)no1 ?
Return: 0.988

Enquiry: What about CC1(C)CC[C@]2(C(=O)O)CC[C@]3(C)C(=CCC4[C@@]5(C)CC[C@@H](O)C(C)(C)C5CC[C@]43C)C2C1 (stereo partly specified) ?
Return: 0.981

Enquiry: What about Cc1ccc2c(Cl)cc(Cl)c(O)c2n1 ?
Return: 1.04

Enquiry: What about CC(=O)O[C@@H]1C2=C(C)C=C(O2)[C@H]2O[C@]2(C)C[C@H]2C=C(C(=O)O2)[C@H](OC(C)=O)CC1[C@@]1(C)CO1 (stereo partly specified) [bipinnatin H] ?
Return: 0.791

Enquiry: What about CC(=O)O[C@H]1C[C@@H](OC(C)=O)C(C)(C)[C@@H]2C[C@@H](OC(C)=O)[C@@]3(C)C4=CC(=O)O[C@@H](c5ccoc5)[C@]4(C)CC[C@@H]3[C@@]12C ?
Return: 0.997

Enquiry: What about COc1cc2nc(N(C)CCCNC(=O)C3CCCO3)nc(N)c2cc1OC (stereo unspecified) ?
Return: 0.905

Enquiry: What about COc1ccc2c(C)cc(=O)oc2c1 ?
Return: 0.869
